System: OVCAR-3-derived ovarian cancer stem-like cells (spheroids)
Experiment: cell growth relative to untreated control; higher = more growth (less inhibition)
Conditions: 2.29 µM; 96 h

>  <compound>
CO[C@H]1Nc2c(ccc(C)c2O)C(=O)N2C=C(/C=C/C(N)=O)C[C@@H]12

>  <cell growth / %>
12.8

$$$$
>  <compound>
CC1(C)CC2=NO[Se]3=C2C(=NO3)C1

>  <cell growth / %>
22.1

$$$$
>  <compound>
CC1=C(N2CC2)C(=O)c2nc3n(c2C1=O)CCC3OC(=O)CCl (configuration not stated)

>  <cell growth / %>
65.2

$$$$
>  <compound>
Cc1c(N)nc([C@H](CC(N)=O)NC[C@H](N)C(N)=O)nc1C(=O)N[C@H](C(=O)N[C@H](C)[C@@H](O)[C@H](C)C(=O)N[C@H](C(=O)NCCc1nc(-c2nc(C(=O)NCCC[S+](C)C)cs2)cs1)[C@@H](C)O)[C@@H](OC1OC(CO)C(O)C(O)C1OC1OC(CO)C(O)C(OC(N)=O)C1O)c1cnc[nH]1 (some centres not stated)

>  <cell growth / %>
53

$$$$
>  <compound>
COC1C(C)OC(OC2CC(C)(O)Cc3cc4c(c(O)c32)C(=O)c2c(O)cc3c(c2C4=O)OC2OC3(C)C(O)C(N(C)C)C2O)C(OC)C1(C)OC (configuration not stated)

>  <cell growth / %>
8.5

$$$$
>  <compound>
CC(C)c1oc(=O)cc2c1[C@@H](O)[C@H]1OC(=O)[C@@]3(C)[C@@H](O)[C@H]4O[C@H]4[C@@]2(C)[C@@H]13

>  <cell growth / %>
62.6

$$$$
>  <compound>
COc1cccc2c1C(=O)c1c(O)c3c(c(O)c1C2=O)C[C@@](O)(C(C)=O)C[C@@H]3O[C@H]1C[C@H](N(Cc2ccccc2)Cc2ccccc2)[C@H](O)[C@H](C)O1

>  <cell growth / %>
62.8

$$$$

###

Test system: OVCAR-3-derived ovarian cancer stem-like cells (spheroids)
Test: cell growth relative to untreated control; higher = more growth (less inhibition)
Conditions: 2.29 µM; 96 h
Entries and their cell growth
assay-metric: cell growth (%)

>  <compound>
CCOC(OCC)C(CC)[Se]c1ccccc1[N+](=O)[O-] (stereo not given)

>  <assay-metric>
cell growth

>  <endpoint-result>
120

$$$$
>  <compound>
COc1ccc(C[C@@H]2NC[C@@H](O)[C@@H]2OC(C)=O)cc1

>  <assay-metric>
cell growth

>  <endpoint-result>
94.2

$$$$
>  <compound>
O=c1[nH]c2ccccc2n1C1CCN(CCCC(c2ccc(F)cc2)c2ccc(F)cc2)CC1

>  <assay-metric>
cell growth

>  <endpoint-result>
90.6

$$$$
>  <compound>
COC1CC(CC2CCC(C)C(C(C)C(=O)O)O2)OC2(OC(C)(C3CCC(C)(C4OC(C5OC(O)(CO)C(C)CC5C)CC4C)O3)CC2C)C1C (stereo not given)

>  <assay-metric>
cell growth

>  <endpoint-result>
64.5

$$$$
>  <compound>
COc1ccc(O)c2c(=O)c3c(OC)cc4c(c3oc12)[C@@H]1C=CO[C@@H]1O4

>  <assay-metric>
cell growth

>  <endpoint-result>
90.1

$$$$

###

System: OVCAR-3-derived ovarian cancer stem-like cells (spheroids)
Experiment: cell growth relative to untreated control; higher = more growth (less inhibition)
Details: 2.29 µM; 96 h
Entries and their cell growth
assay-metric: cell growth (%)

>  <compound>
COc1ccc(-c2cc(=O)c3c(OC)c(OC)c(OC)cc3o2)cc1

>  <endpoint-unit>
%

>  <endpoint-result>
120

$$$$
>  <compound>
C[N+](C)(C)CC1CCCC1=O (centres undefined)

>  <endpoint-unit>
%

>  <endpoint-result>
95.5

$$$$
>  <compound>
Cc1ccc(N=Nc2c(O)ccc3ccccc23)cc1

>  <endpoint-unit>
%

>  <endpoint-result>
74.1

$$$$
>  <compound>
CC(/C=N/N=C(N)N)=N\N=C(N)N

>  <endpoint-unit>
%

>  <endpoint-result>
70.6

$$$$
>  <compound>
CC[C@](C)(O)C(=O)O[C@H]1C(=O)O[C@@H]2C[C@H]3C(C)=C[C@H](O)[C@@H](O)[C@]3(C)[C@H]3[C@@]4(O)OC[C@]32[C@@H]1[C@@H](C)[C@H]4O

>  <endpoint-unit>
%

>  <endpoint-result>
138

$$$$
>  <compound>
CC[PH+](CC)CC.[Cl][Au]

>  <endpoint-unit>
%

>  <endpoint-result>
103

$$$$
>  <compound>
CC1=C[C@H]2O[C@@H]3[C@H](O)[C@@H](O)[C@@](C)([C@@]2(CO)CC1)[C@]31CO1

>  <endpoint-unit>
%

>  <endpoint-result>
36

$$$$
>  <compound>
C=C1C(=O)O[C@@H]2C[C@@H](C)[C@@H]3C=CC(=O)[C@@]3(C)[C@@H](O)[C@H]12

>  <endpoint-unit>
%

>  <endpoint-result>
14.5

$$$$
>  <compound>
CCOC(=O)NC1=C(N2CC2)C(=O)C(NC(=O)OCC)=C(N2CC2)C1=O

>  <endpoint-unit>
%

>  <endpoint-result>
50.1

$$$$
>  <compound>
CCC[CH2][Sn]([CH2]CCC)([CH2]CCC)[O]c1cc(Cl)c(Cl)cc1Cl

>  <endpoint-unit>
%

>  <endpoint-result>
8.8

$$$$
>  <compound>
COc1cccc2c1cc([N+](=O)[O-])c1c(C(=O)O)cc3c(c12)OCO3

>  <endpoint-unit>
%

>  <endpoint-result>
95.5

$$$$
>  <compound>
N#Cc1cn([C@@H]2O[C@H](CO)[C@@H](O)[C@H]2O)c2ncnc(N)c12

>  <endpoint-unit>
%

>  <endpoint-result>
8.9

$$$$
>  <compound>
CC(C)C[C@H]1C(=O)N2CCC[C@H]2[C@]2(O)O[C@](NC(=O)[C@@H]3C=C4c5cccc6[nH]c(Br)c(c56)C[C@H]4N(C)C3)(C(C)C)C(=O)N12

>  <endpoint-unit>
%

>  <endpoint-result>
90.6

$$$$
>  <compound>
O=C1N[C@H]2[C@H](O)[C@H](O)[C@@H](O)[C@H](O)[C@@H]2c2cc3c(c(O)c21)OCO3

>  <endpoint-unit>
%

>  <endpoint-result>
19.5

$$$$
>  <compound>
COc1cc2c(c(OC)c1OC)-c1ccc(OC)c(=O)cc1[C@@H](NC(C)=O)CC2

>  <endpoint-unit>
%

>  <endpoint-result>
47.9

$$$$
>  <compound>
CC(C)C(NC(=O)C(C(C)C)N(C)C)C(=O)N(C)C(C(=O)N1CCCC1C(=O)N1CCCC1C(=O)NCc1ccccc1)C(C)C (centres undefined)

>  <endpoint-unit>
%

>  <endpoint-result>
24.5

$$$$
>  <compound>
C1COCCN1.S=C(S)N1CCOCC1

>  <endpoint-unit>
%

>  <endpoint-result>
63.4

$$$$
>  <compound>
CCOC(=O)[C@H](CC(C)C)NC(=O)C(Cc1ccc(N(CCCl)CCCl)cc1)NC(C)=O (some centres undefined)

>  <endpoint-unit>
%

>  <endpoint-result>
73.3

$$$$
>  <compound>
COc1cc2c(cc1O)N=CC1CCC(O)N1C2=O (centres undefined)

>  <endpoint-unit>
%

>  <endpoint-result>
93.8

$$$$
